# Test system: COLO 205 colon
# measurement_protocol: NCI tumour cell line growth inhibition, 48 h
measurement_kind: GI50

Here's what some known entries look like.
{"molecule": "CC(=O)N1c2ccc(-c3ccc(C(=O)O)cc3)cc2[C@H](Nc2ccc(Cl)cc2)C[C@@H]1C", "observed_result": "61.5 nM"}
{"molecule": "CN1CCN(Cc2ccc(NC(=O)c3[nH]ncc3Nc3cc(OC4CCCC4)ncn3)cc2)CC1", "observed_result": "1240 nM"}
{"molecule": "O=C1CC2OCC=C3CN4CCC56c7ccccc7N1C5C2C3CC46 (centres undefined) (tested in a mixture with another compound)", "observed_result": "> 50 µg/mL"}

Field: next molecule
Task item: For the molecule shown here, COc1cc(OC)c2c(c1Cl)O[C@]1(C2=O)C(OCc2ccccc2)=CC(=O)C[C@H]1C , give the reported GI50.
Reply: 430 nM

Data provenance: PubChem BioAssay (NCI)
